# assay.method.text: NCI Yeast Anticancer Drug Screen. Data for the mec2-1 strain (AID 157)
# condition.label: S. cerevisiae mec2-1 strain, at 50.0 µM, active compounds read high
This is part of a sample that, as a whole, favours compounds with a hit. Of some 79,000 tested, about 15% had one in any assay.
Lab note: compare growth inhibition against 70%. Equal or greater, write t. Smaller, write f.

Check out these entries, answers already filled in.
O=C(/C=C/c1ccccc1)C1(c2ccccc2)CC1; f
Cc1ccc(-c2c(C#N)c(-c3ccccc3)n(NS(=O)(=O)c3ccc(C)cc3)c(=O)c2C#N)cc1; t
c1ccc2c(c1)[nH]c1cc3ccncc3cc12; f
O=C1Oc2ccccc2C1c1ccccc1 (stereo not given); f
Cn1c(N)c(NC(=O)CCl)c(=O)n(C)c1=O; f
CC(C)c1ccc(/C=C2\CSCC3=C2NC(=S)NC3c2ccc(C(C)C)cc2)cc1 (stereo not given); t
CCCCCCCCCCCC(=O)OCC1OC(n2cc(F)c(=O)[nH]c2=O)C(N)C(O)C1O (stereo not given); t
Brc1ccc(C2SCc3nc4ccccc4n32)cc1 (stereo not given); f

Next, consider the following molecule.
Quick check, growth inhibition >= 70%? `CC(=Nc1ccc(N(C)C)cc1)c1ccccc1`
f

----------
# assay.method.text: NCI Yeast Anticancer Drug Screen. Data for the cln2 rad14 strain (AID 165);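 further: 0% = growth equal to vehicle treated cultures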
# condition.label: S. cerevisiae cln2 rad14 strain, at 50.0 µM (retest, dose inferred, filed as 5.0), active compounds read high
This is part of a sample that, as a whole, favours compounds with a hit. Of some 79,000 tested, about 15% had one in any assay.
# key: entry, value: growth inhibition
Respond with the bare value in %.

Guide cases for growth inhibition, answers given:
CC(=O)Nc1ccc(/S(=N\S(=O)(=O)c2ccc(C)cc2)c2ccc(NC(C)=O)cn2)cc1 (stereo not given); 3
Cc1ccc2c(ccc3c[n+]4c5ccccc5ccc4n32)c1; 99
Cc1cc(Cl)c2c(c1)C(=N/O)/C(=C\c1ccco1)O2; 99
CCOC(=O)c1[nH]n(-c2ccccc2)c(=O)c1/C=N/C(=S)Nc1ccccc1OC; -12
Cc1c(CCl)c(=O)oc2c(C)c3occ(CCl)c(=O)c3cc12; 60
O=C1c2cccnc2-c2nccc3c2c1nc1cc(Br)ccc13; 97
CNC(=O)OC(C)CN1c2ccccc2Sc2ccccc21 (stereo not given); 93
O=S1(=O)CS(=O)(=O)OCCCO1; 9

Name the recorded growth inhibition for `Cn1c(N)c(N=Nc2ccc(S(N)(=O)=O)cc2)c(=O)n(C)c1=O` .
8

Name the recorded growth inhibition for `CNC(=N)c1ccc(NC(=N)c2ccc(NC(=O)c3ccc(C(=O)Nc4ccc(C(=N)Nc5ccc(C(=N)NC)cc5)cc4)cc3)cc2)cc1` .
42

----------
# assay.method.text: NCI Yeast Anticancer Drug Screen. Data for the cln2 rad14 strain (AID 165);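 further: 0% = growth equal to vehicle treated cultures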
# condition.label: S. cerevisiae cln2 rad14 strain, at 50.0 µM
About 79,000 compounds went through this panel and 15% of them were active in at least one assay; those are over-represented in the sample as a whole. Activity calls are given as the source filed them. Rule as the data show it: active = growth inhibition above about 70%; inactive = the rest.
Would you mind answering with one of these outcomes? 1 (yes) = active, 0 (no) = inactive

Cc1ccc(N=C=C(c2ccccc2)c2ccccc2)cc1; 0 (no)
O=C(O)C(O)C(O)C(O)C(O)c1nc2ccccc2s1 (stereo unspecified); 1 (yes)

Next, consider the following compound.
What did the test return for COc1cc(OC)cc(C2OC3=C(Nc4ccc([N+](=O)[O-])cc4N3)C2=O)c1 (stereo unspecified) ?
0 (no)
